Each entry below carries its recorded R (ELISA score with target / ELISA score without target).
TARGET UNDER TEST: REFACTO® (recombinant factor VIII-like polypeptide consisting of amino acids 1-743 and 1638 through 2332 of human factor VIII) (human) (UniProt P00451)
Sequence (P00451 20-762, chain 1 of 2): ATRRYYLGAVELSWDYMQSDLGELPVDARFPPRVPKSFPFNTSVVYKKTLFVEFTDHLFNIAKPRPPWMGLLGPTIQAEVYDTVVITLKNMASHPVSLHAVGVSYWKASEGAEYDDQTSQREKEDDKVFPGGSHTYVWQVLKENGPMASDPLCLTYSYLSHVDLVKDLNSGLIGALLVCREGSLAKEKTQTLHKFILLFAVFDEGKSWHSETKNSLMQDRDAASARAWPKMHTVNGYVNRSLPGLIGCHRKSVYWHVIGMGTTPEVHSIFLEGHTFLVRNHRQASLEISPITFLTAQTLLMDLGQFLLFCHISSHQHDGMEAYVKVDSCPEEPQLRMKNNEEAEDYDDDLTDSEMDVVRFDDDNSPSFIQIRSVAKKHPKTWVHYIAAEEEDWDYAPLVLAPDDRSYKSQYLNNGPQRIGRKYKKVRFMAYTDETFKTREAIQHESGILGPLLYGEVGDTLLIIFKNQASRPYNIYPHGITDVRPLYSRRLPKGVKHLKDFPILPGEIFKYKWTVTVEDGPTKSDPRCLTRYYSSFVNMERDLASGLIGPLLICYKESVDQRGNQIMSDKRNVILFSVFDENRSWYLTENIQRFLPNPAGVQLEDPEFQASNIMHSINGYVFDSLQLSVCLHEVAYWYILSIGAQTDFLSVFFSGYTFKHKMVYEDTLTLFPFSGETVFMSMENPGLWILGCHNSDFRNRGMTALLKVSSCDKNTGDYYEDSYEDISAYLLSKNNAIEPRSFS
Sequence (P00451 1657-2351, chain 2 of 2): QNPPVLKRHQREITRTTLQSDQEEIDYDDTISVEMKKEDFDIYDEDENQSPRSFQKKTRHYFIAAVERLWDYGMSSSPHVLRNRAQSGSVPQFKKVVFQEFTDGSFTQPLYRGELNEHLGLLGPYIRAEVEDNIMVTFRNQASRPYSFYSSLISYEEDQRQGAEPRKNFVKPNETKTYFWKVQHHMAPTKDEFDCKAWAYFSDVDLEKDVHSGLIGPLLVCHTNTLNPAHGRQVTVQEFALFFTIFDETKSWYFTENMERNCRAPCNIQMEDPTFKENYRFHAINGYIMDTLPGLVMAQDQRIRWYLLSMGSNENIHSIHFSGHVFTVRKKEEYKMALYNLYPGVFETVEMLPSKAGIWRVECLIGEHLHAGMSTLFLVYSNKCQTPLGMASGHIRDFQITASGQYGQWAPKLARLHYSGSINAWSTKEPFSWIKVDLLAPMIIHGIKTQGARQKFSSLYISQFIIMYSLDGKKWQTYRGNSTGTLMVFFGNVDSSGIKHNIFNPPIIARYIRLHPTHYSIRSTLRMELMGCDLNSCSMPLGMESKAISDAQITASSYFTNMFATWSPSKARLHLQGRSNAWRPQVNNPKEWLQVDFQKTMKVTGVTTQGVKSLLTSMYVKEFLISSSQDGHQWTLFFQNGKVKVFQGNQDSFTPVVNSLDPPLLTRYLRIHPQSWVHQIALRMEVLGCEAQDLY
PROCEDURE DETAILS: phage ELISA, ratio with target to without target
EXPERIMENTAL READOUT: R (ELISA score with target / ELISA score without target)

BINDER: RLCSWVSPCSA [TN7 phage isolate C5/G10]
RESULT: 10
--
BINDER: HPCGSWFNPCAH [TN8 phage isolate 02 (SEQ ID NO: 13)]
RESULT: 8
--
BINDER: HPCGSWFRPCFH [TN8 phage isolate 02 (SEQ ID NO: 14)]
RESULT: 16
--
BINDER: HRCGSWLHPCLA [TN8 phage isolate 11/G10 (A11/G10-TN8)]
RESULT: 6
--
BINDER: FCWVFPFNHCS [TN9 phage isolate 12 (SEQ ID NO: 28)]
RESULT: 18
--
BINDER: HACGSWFRPCHA [TN8 phage isolate 07 (SEQ ID NO: 15)]
RESULT: 6
--
BINDER: HPCGSWLHPCAA [TN8 phage isolate 04 (SEQ ID NO: 12)]
RESULT: 6
--
BINDER: HLCGAWFRPCDA [TN8 phage isolate 02 (E02-TN8, SEQ ID NO: 16)]
RESULT: 6
--
BINDER: FCWVFPFHHCF [TN9 phage isolate 06 (D06-TN9)]
RESULT: 6
--
BINDER: FCHVFNFVHCS [TN9 phage isolate 01 (SEQ ID NO: 31)]
RESULT: 8
--
BINDER: FCWVFNFSHCS [TN9 phage isolate 03 (SEQ ID NO: 26)]
RESULT: 24
--
BINDER: RLCSWISPCSA [TN7 phage isolate D04]
RESULT: 6
--
BINDER: FCWVFQFRHCH [TN9/1 phage isolate … (SEQ ID NO: 77)]
RESULT: 8
--
BINDER: FCWVFPFNHCD [TN9 phage isolate 02 (SEQ ID NO: 27)]
RESULT: 8
